Measured apparent KD of MS2 coat protein values are reported for all entries that follow.
test system: MS2 coat protein; test: apparent KD of MS2 coat protein; higher = weaker reporter binding; details: Eterna round: R107; input ligand: tryptophan 2.4 mM
readout.kind: apparent KD of MS2 coat protein (nM)

# sequence, readout.kind, experimental.value
data = [
    ("AAACAUUGCUCAGAUACCAGACAUGAGGAUCACCCAUGUACCAAGGUAACCGAAAGGCAUGUCCCUUGGCAGCUGAGCAAUGAAA [MAT - Exclusion Theophlline B - Mod of Eli - D15]", "apparent KD of MS2 coat protein", 13),
    ("CGAGUCCGCUGAUGGGCUAAGUCAGGUGAUACCAGCCACUCCCGCGGCCCUUGGCAGCACAUGAGGAUCACCCAUGUAGGGCUUG [Iserbele]", "apparent KD of MS2 coat protein", 23.1),
    ("CUCCUGGGAGCGGCCGCCACUGGAGGCCUCGCGCGACAUGAGGAUCACCCAUGUUGGCCCGGCCUCAGGACCGGGUUCGCGCGAG [Same State - Tryptophan B Attempt #3]", "apparent KD of MS2 coat protein", 10),
]

---

tested on: MS2 coat protein; test: apparent KD of MS2 coat protein; designed switch direction (-1 OFF switch, 1 ON switch): -1; higher = weaker reporter binding; settings: Eterna round: R95; input ligand: none
Outcome label depends on apparent KD of MS2 coat protein relative to 20 nM: at/above gives 1.0, below gives 0.0.

# sequence, classification
data = [
    ("GAAAAGGUAGGAUAUACGAAAAGAAAGGGUAGAGAAGAAACACAUGAGGAUCACCCAUGUAGAAGGACCAAAAG [salish99_ex2_r3_098] (puzzle: Exclusion 2)", 1.0),
    ("ACCUUACAUGAGGAUCACCCAUGUCAGGAUAUCUCGGGCGGCUGAGGACCAGCCACCCAGAGAAGGGACGAGGA [Qumaraanan] (puzzle: Exclusion 1)", 0.0),
    ("GUAUAACUACACGGGCUCAACAUGAGGAUCACCCAUGUCACAUACGCAAGCUUUUUGCUUGUCUUAUCUGUCCGUGA [Quleorraa] (puzzle: Sensor v3, turn-off variant 1)", 0.0),
    ("AAAAGGUCAGGAUAUUCAAGAAAAGAAAAGAAAAGAAAAGAGAAGAAGGGACAUGAGGAUCACCCAUGUAAAAG [Default title] (puzzle: Exclusion 4)", 0.0),
    ("GAUGAGGUAGGAUAUACGAGAAGAUAGGGUAGAGAGAGAACACAUGAGGAUCACCCAUGUAGAAGGACCAGUAG [Mat - Exclusion 2 - Mod of my Tesla design - D74] (puzzle: Exclusion 2)", 1.0),
]

---

test system: K4 kissing-loop RNA reporter; test: apparent KD of K4 kissing-loop reporter; higher = weaker reporter binding; details: Eterna round: R107; input ligand: theophylline 20 uM

# sequence, subject.of.test, apparent KD of K4 kissing-loop reporter (nM)
data = [
    ("AUUAAUUUCAGAGGAUAUCGUUAUUUUUUAUAGUAUAUUCAAUUAUGCAGUGAUGUUGCUAUUAAUCGAGAAGGCUGAUUUAUAA [JR_ExcFMNB_Sub002]", "K4 kissing-loop RNA reporter", 250),
    ("UAUGUACGCGGGUAACGGUACAUCGAGGAAGGAGCGUGCGCAGGCACAGGUAGGUCGCCUCAGCGCACGAGUGAUGUUCGUGGGC [Rere]", "K4 kissing-loop RNA reporter", 298),
    ("GUUUUAUAAGAGGAUACCAGUACAAAUAAAGUACAUUAAUAGUAGAGUGAUGUUCUAAAGUACCCUUGGCAGCUUAGAUUAAGUU [ExTheophylB.E]", "K4 kissing-loop RNA reporter", 252),
    ("AAUGUACAGGGAAGGAGCGUAGUCCAGUGAUGUUGGAAUUAAAUUCCUGUGAUGUUGGUUAUACAGGUAGGUCGCCCUAAAGUGC [KL-XARG-B21]", "K4 kissing-loop RNA reporter", 118),
    ("UACGCUGCCUGAGGAUAUAGAAACGAGUGAUGUUCGUGGAUAAGAGCCAGUGAUGUUGGGUUAUUUCUAGAAGGCAGGUAAAGUA [Exclusion FMN B GF6]", "K4 kissing-loop RNA reporter", 95.8),
    ("UUAGGAGUGGGAGGAUAUCCUGGUGUGGGUGAUGUUAGUGAUGUUGAAAGUGUAGUGAUGUUGUGCGGAGAAGGUCCAGUGUUGA [BDazzled - #10 - Exc. FMN B]", "K4 kissing-loop RNA reporter", 646),
    ("AGGUCACAACUACAGUGAUGUUGUGGAGAGCAGGAUAUGCAGAAAUGCAGAAGGGCUCGCUCUCUAGUGACCGAUCAAAAGAUCA [Omei KL FMN A SS A v9]", "K4 kissing-loop RNA reporter", 545),
    ("UAGUCCUAGUGAUGGUCAUCACGUGGCGGGCGAGGACCGGUACGGCCGCCACUCGACUUUGCAGUGAUGUUGCAAACCGGACAAU [Exclusion - Tryptophan A (Freestyle 20)]", "K4 kissing-loop RNA reporter", 136),
    ("GCUAUGGUUGGAAGGAGCGUUGAAUUGUUAGUAAGAGUGAUGUUCGAUAGUGGACAGUUGUAGCAGGUAGGUCGCCAACUAUAGC [KL-Arg B28]", "K4 kissing-loop RNA reporter", 560),
    ("AAAUAGAUCAGUCAACCAGUGAUGUUGGAAGGAGCGUGCGAAAGCACAGGUAGGUCGCCAGAAUAAAAGUGGCUGAUCAAAAUAA", "K4 kissing-loop RNA reporter", 508),
    ("AGGUCAGCAGGAAGGAGCGCCCUGACAGGUUGCUGCCGUGGGCAGUGAUGUUGCUCAGUCCGGCAGGUAGGUCGCCUGCUGACCU", "K4 kissing-loop RNA reporter", 188),
    ("AGACUACCUACACUGUCAAUAGACAGUGACUAGGAUAUGCUGAUAAGCAGAAGGAGUGAUGUUCCUGGUAGUCAAAUAAAAUAAU [FmnAX 12 #SwitchBubble #StaticStem #K4Early]", "K4 kissing-loop RNA reporter", 323),
]

---

# apparent KD of MS2 coat protein per entry
test system: MS2 coat protein; test: apparent KD of MS2 coat protein; designed switch direction (-1 OFF switch, 1 ON switch): -1; higher = weaker reporter binding; conditions: Eterna round: R95; input ligand: microRNA oligo, concentration not stated

# sequence, apparent KD of MS2 coat protein / nM
rows = [
    ("AUAGUAGAAGUGAGGAUAUCGUAGAUUUUAGGAAACGAGAAGGCACAUGAGGAUCACCCAUGUAAGAUGGAGGU [JR_BMOE4_Sub051] (puzzle: Brourd's mod of Exclusion 4)", 263),
    ("UCGCUGCGAGGAUAUACGUGCGCGCGCUCGCGUGCGCGCGUACAUGAGGAUCACCCAUGUAGAAGGCGCGCUGC [Apr-15 SS2-4] (puzzle: Exclusion 2)", 13.4),
    ("GGUGCGUAUGUGAGGAUAUGCUGGUCCUUGGAUCAGCAGAAGGCACAUGAGGAUCACCCAUGUGGUGUCGUGCC [salish99_Bmod_Ex4_019] (puzzle: Brourd's mod of Exclusion 4)", 168),
]

---

tested on: K4 kissing-loop RNA reporter; assay: apparent KD of K4 kissing-loop reporter; higher = weaker reporter binding; conditions: Eterna round: R107; input ligand: arginine 13.2 mM;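 note: bound reporter read as fluorescence of individual clusters on recovered sequencing chips by microscopy, with normalized cluster intensities fitted with a binding model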
readout.kind: apparent KD of K4 kissing-loop reporter (nM)

# sequence, unit.info, experimental.value
measured = [
    ("UGCAUGCGUAGAGUGAUGUUCUAAGAUGAUACCAGUGCGGAAACGCACCCUUGGCAGCAUCUGACUGCAUGCACGUCGAAAGACG", "nM", 666),
    ("UAUCUUUGCUGAAGGAGCGAGCAUGUUGGAGUGAUGUUCCGAGCGAGUGAUGUUCGCAUAGCUCAGGUAGGUCGCAGUGGGAGGA [Same State Arginie B GF 16]", "nM", 111),
    ("GGCACUUUUGCUUGGAACCGUCAAGCUCUUUAGGAUAUCUGGAAACAGAGAAGGAAAGACCUACAGAGUGAUGUUCUGCGUGCCU", "nM", 133),
    ("AAUACAGUGUCGGCCGCCACUGUAACAUGCCAUGAGACAUGAGACAUGAGUGAUGUUCAUGUAGACAGGACCGGGACUCAUGUAU [KL-SSTryp-B3 #analogue]", "nM", 373),
    ("GCGGGCGGCUGAAGGAGCGGGCGGGCCCGAGUGAUGUUCGGGUGGGCCGUGAGGCCCGGAGCCCAGGUAGGUCGCGGUUCCGUCC [#2 Same State - Arginine B Attempt #19 (HarryS)]", "nM", 113),
    ("AAAACUCAUGGCUUAUAUCCGUGUCUCGAAGGAGCGUACAGCGGUACAGGUAGGUCGCGAGACAUGAGUGAUGUUCAUGUGUAAA [KL-XArg-A6 #analogue]", "nM", 109),
    ("CGCCGUAAGGCGAGCGCUCCCACUCCGGAAGGAGCGCCCGGAAGGGCAGGUAGGUCGCCGGAGUGAUGUUCCGGUGGAGGGCUCG [#2 Exclusion - Arginine A Attempt #12 (Inspired by Omei)]", "nM", 144),
    ("GCUAUGGUAGGAAGGAGCGCUUAAUUACUAAUAAGAGUGAUGUUCGAUAGUAGGUAUUUAUAGCAGGUAGGUCGCCUACUAUAGC [KL-Arg B23]", "nM", 171),
    ("GAGGUACAGGCGGCCGCCACUAGUGAUGUUAGUGAUAGAAGAUAUAGUAAAUAUCGGCAUUUAGAUAGGACCGGGCCUGGUGGUG [ffdfcmullin]", "nM", 242),
    ("CAAAUAUGCGGUAGGUUCAAGCGCUGGGAAGGAGCGCAGAUGACUGCAGGUAGGUCGCCCAGUGAUGUUGGGCUUUCCACCUAUU [Edbeaan]", "nM", 124),
    ("CCAGGUUGCCGCAACGACCUGGAUUUUAGGGAGGAUAUCCAGAGCAGGAGAAGGCCCAGUGAUGUUGGGCCUGUGGAGCCCAUAU [Ararensoza]", "nM", 149),
    ("GCUAUGGUUGGAAGGAGCGUUGAAUUGUUAGUAAGAGUGAUGUUCGAUAGUGGACAGUUGUAGCAGGUAGGUCGCCAACUAUAGC [KL-Arg B28]", "nM", 570),
    ("GGCAGAGUGAUGUUCGCCCUUUACCUUGAUACCAGUUCAUCUCAAAACCCUUGGCAGCAAGUGUGUAAGAGCGGUAUUGGUCAAU [theeternabot_exclusion_KL_Theo_A_1]", "nM", 306),
    ("AGUGGACGUGUCCGGAGUGAUGUUCCGGAUACCAGACACGAAAGUGUCCCUUGGCAGCCGGAGUAAAGUUCCGGCGUUCACUAAA [#26 K4 Theophylline A Exclusion]", "nM", 77.8),
    ("GUAGGAUGAGGAGGAGGAUGAAUUACUGAAGGAGCGCAUAGAAAUGCAGGUAGGUCGCGGUAAAGAAGUAUAGUGAUGUUAUAUA [SSArgA.F]", "nM", 420),
    ("UACGCUGCCUGAGGAUAUAGAAACGAGUGAUGUUCGUGGAUAAGAGCCAGUGAUGUUGGGUUAUUUCUAGAAGGCAGGUAAAGUA [Exclusion FMN B GF6]", "nM", 89.1),
    ("CUUCGAUUAACAGAUACCAGUCACUUUGGAGCCACACACAAGUGAGUGAUGUUCACUUGUGACCCUUGGCAGCUGUUAGUCGAAG [Theo B Ex t1]", "nM", 75.4),
    ("UGAUACCAGACUGAUACCAGCCAGUGAUGUUGGCUAAUCCGAGAAGGAGUCAAAGACUCCGGCCCUUGGCAGCAGUCUGGUAUCU [TheoBX 4 #SwitchBubble #StaticStem]", "nM", 117),
    ("AGUUCUUGCCGAAGGAGCGAGGCAGAGUGAUGUUCUGCAAAGGUCGAAAGACCUUAACUGCCUCAGGUAGGUCGCGGCAUGAACA [KL-XARG-B23]", "nM", 351),
    ("GGAUCCGCCAGUGAUGUUGGAGAAAACUCCAAGGAUAUGACGAAAGUCAGAAGGUGGUAGACUGGACAAAGUCCGGUCGGAUCCA [FmnA 26 #SwitchBubble #K4Early]", "nM", 331),
    ("AUUAAUAUCACGGCCGCCACUGAAUAUUGUUUUUAUAUUUAGAAUAAUUGCCAGUGAUGUUGGAUCAGGACCGGGUGAUUUUAUA [JR_SSTryptoB_Sub008]", "nM", 489),
    ("GCCGUAGAUUGAAGGAGCGCCUUCUUACCAAGAGUGAUGUUCUUUGGUACCAUGUUCAGCAGGCAGGUAGGUCGCAAUCUACGGC", "nM", 142),
    ("UGAUGUUUAGGUCACCCAGUGAUGUUGGAAGGAGCGUGCGAAAGCACAGGUAGGUCGCCAAUCUCCUUGUGACCUGAGCAUCUAA [#SwitchBubble 14 #K4Early]", "nM", 787),
]
